subject.of.test: CCR5 (UniProt P51681)
assay.procedure: cell-based or functional assay
Decide by CCR5 signalling (%) (% of Emax of PSC-RANTES): equal to or exceeding 20 means criterion met, less means criterion not met.

Solved cases below.
binder	cat
RANTES derivative: signature sequence SEQ ID NO: 51 fused to positions 10-68 of native RANTES (SEQ ID NO: 1) (ligand) QGPPLQWTQVCCFAYIARPLPRAHIKEYFYTSGKCSNPAVVFVTRKNRQVCANPEKKWVREYINSLEMS	criterion not met
RANTES derivative: signature sequence SEQ ID NO: 11 fused to positions 10-68 of native RANTES (SEQ ID NO: 1) (ligand) QGPPLMALQVCCFAYIARPLPRAHIKEYFYTSGKCSNPAVVFVTRKNRQVCANPEKKWVREYINSLEMS	criterion not met
RANTES derivative: signature sequence SEQ ID NO: 3 fused to positions 10-68 of native RANTES (SEQ ID NO: 1) (ligand) QGPPLMWMQVCCFAYIARPLPRAHIKEYFYTSGKCSNPAVVFVTRKNRQVCANPEKKWVREYINSLEMS	criterion not met
RANTES derivative: signature sequence SEQ ID NO: 29 fused to positions 10-68 of native RANTES (SEQ ID NO: 1) (ligand) QGPPLGSMGPCCFAYIARPLPRAHIKEYFYTSGKCSNPAVVFVTRKNRQVCANPEKKWVREYINSLEMS	criterion met
RANTES derivative: signature sequence SEQ ID NO: 17 fused to positions 10-68 of native RANTES (SEQ ID NO: 1) (ligand) QGPPGDIVLACCFAYIARPLPRAHIKEYFYTSGKCSNPAVVFVTRKNRQVCANPEKKWVREYINSLEMS	criterion met
RANTES derivative: signature sequence SEQ ID NO: 31 fused to positions 10-68 of native RANTES (SEQ ID NO: 1) (ligand) QGPPLSWLQSCCFAYIARPLPRAHIKEYFYTSGKCSNPAVVFVTRKNRQVCANPEKKWVREYINSLEMS	criterion not met

**Q:** Could you please find out whether RANTES derivative: signature sequence SEQ ID NO: 6 fused to positions 10-68 of native RANTES (SEQ ID NO: 1) (ligand) QGPPLMWLQTCCFAYIARPLPRAHIKEYFYTSGKCSNPAVVFVTRKNRQVCANPEKKWVREYINSLEMS has CCR5 signalling (%) (% of Emax of PSC-RANTES) that meets 20 or exceeds it?
**A:** criterion not met

**Q:** Could you please find out whether RANTES derivative: signature sequence SEQ ID NO: 20 fused to positions 10-68 of native RANTES (SEQ ID NO: 1) (ligand) QGPLSGQSTPCCFAYIARPLPRAHIKEYFYTSGKCSNPAVVFVTRKNRQVCANPEKKWVREYINSLEMS has CCR5 signalling (%) (% of Emax of PSC-RANTES) that meets 20 or exceeds it?
**A:** criterion met

**Q:** Could you please find out whether RANTES derivative: signature sequence SEQ ID NO: 64 fused to positions 10-68 of native RANTES (SEQ ID NO: 1) (ligand) QGPPLMSLQSCCFAYIARPLPRAHIKEYFYTSGKCSNPAVVFVTRKNRQVCANPEKKWVREYINSLEMS has CCR5 signalling (%) (% of Emax of PSC-RANTES) that meets 20 or exceeds it?
**A:** criterion not met

**Q:** Could you please find out whether RANTES derivative: signature sequence SEQ ID NO: 47 fused to positions 10-68 of native RANTES (SEQ ID NO: 1) (ligand) QGPLSQSSQVCCFAYIARPLPRAHIKEYFYTSGKCSNPAVVFVTRKNRQVCANPEKKWVREYINSLEMS has CCR5 signalling (%) (% of Emax of PSC-RANTES) that meets 20 or exceeds it?
**A:** criterion met
